Tested on: P388 leukemia ip, CD2F1 mice, survival T/C
Assay: NCI In Vivo Anticancer Drug Screen. Data for tumor model P388 Leukemia (intraperitoneal) in CD2F1 (CDF1) mice
Conditions: endpoint: median survival time; dose: 240.0 mg/kg/injection; schedule: Q01DX005 (ip); vehicle: saline; higher = longer survival
Experimental: The antitumor activity of compounds was measured in mice bearing transplantable tumors. Survival or tumor size were measured and the results are expressed as the measurement made in the treated group (T) divided by the measurement made in the vehicle treated control group (C). The tumor model used in this assay is P388 Leukemia (intraperitoneal) in CD2F1 (CDF1) mice
Toxic doses and inconclusive results are not listed.
MEASURE: T/C

Supply measured T/C of CC(=O)NC(C)(C(C)=O)c1ccccc1 (stereo not given) in your reply.
110 % of control

Write down T/C measured for item COC(=O)CCC(N)C(=O)NC(Cc1ccccc1)C(=O)NC(C)C(=O)NC1C(O)OC(CO)C(O)C1O (stereo not given)
99 % of control

Give the value of T/C reported for the following: COc1ccc(C(CN2CCOCC2)C(C)=O)cc1OC (stereo not given)
101 % of control

Look up and state reported T/C for CC(=O)OCC1OC(CCC#N)C(OC(C)=O)C(OC(C)=O)C1OC(C)=O (stereo not given)
101 % of control

Give T/C for the following compound: CCOP(=O)(CS(=O)(=O)CCC1(C)NC(=O)NC1=O)OCC (stereo not given)
103 % of control
